System: SR leukemia
assayProtocol: NCI tumour cell line growth inhibition, 48 h
A collection of molecules and their measured TGI

Completed entries (count: 5):
Param item: CCN(CC)c1ccc(/C=c2\nc(-c3ccccc3)n3c2nc2ccccc23)cc1 ; param system: SR leukemia; output TGI: > 100 µM

Param item: O=C(O)C(F)(F)C(F)(F)C(F)(F)C(F)(F)C(=O)O ; param system: SR leukemia; output TGI: > 100 µM

Param item: Cc1cc(O)c(C(=O)CC2(O)C(=O)Nc3c(Cl)cc(Cl)cc32)c(=O)o1 (stereo unspecified) ; param system: SR leukemia; output TGI: > 100 µM

Param item: COc1ccc2c([nH]c3cc(O)c(C)cc32)c1C=O ; param system: SR leukemia; output TGI: > 25 µM

Param item: Clc1ccc(-n2nnc(C3=NCCCN3)c2-c2ccccc2)cc1 ; param system: SR leukemia; output TGI: > 100 µM

Continuing:
Param item: Cc1ncc([N+](=O)[O-])n1CCNS(=O)(=O)CCCn1ccnc1[N+](=O)[O-] ; param system: SR leukemia; output TGI: > 100 µM

Param item: Cc1c(C#N)c2nnn(-c3ccc([N+](=O)[O-])cc3)c(=O)n2c1-c1ccccc1 ; param system: SR leukemia; output TGI: 46.3 µM

Param item: CC(=O)OCSc1ncnc2c1ncn2CN1CCOCC1 ; param system: SR leukemia; output TGI: > 100 µM

Param item: Cc1ccccc1CN1CC2=C(CCN(Cc3ccccc3)C2=O)N2CCN=C12 ; param system: SR leukemia; output TGI: > 100 µM

Param item: c1nncn1C12C3C4C5C3C1C5C42 (stereo unspecified) ; param system: SR leukemia; output TGI: > 100 µM

Param item: O=C(/C=C/C=C/c1ccccc1)CCc1ccccc1 ; param system: SR leukemia; output TGI: 63.7 µM

----------
System: UACC-257 melanoma
assayProtocol: NCI tumour cell line growth inhibition, 48 h
resultType: GI50

Param item: CC([C@H]1CCC2C3CCC4C[C@@H](NC=O)CC[C@]4(C)C3CC[C@@]21C)N(C)C (some centres not stated) ; param system: UACC-257 melanoma; output GI50: 2.57 µM

Param item: COc1c(C)c2c(c(O)c1C/C=C(\C)CCC(=O)OCCN1CCOCC1)C(=O)OC2 ; param system: UACC-257 melanoma; output GI50: 0.573 µM

Param item: COc1cc(NC(=O)c2cc(OC)c3ccn(C)c3c2)cc2c1C[C@]1(C)CC[C@@H](O)C(C)(C)[C@H]1O2 ; param system: UACC-257 melanoma; output GI50: 7.6 µM

Now for another entry.
Param item: N#CC1=C(N)N=C(N2CCCCC2)C(C#N)C12Nc1ccccc1S2 (configuration not stated) ; param system: UACC-257 melanoma; output GI50: 20.9 µM

----------
Test system: KM12 colon
assayProtocol: NCI tumour cell line growth inhibition, 48 h
resultType: TGI

Completed entries (count: 9):
TGI measured on COc1ccc(C2c3cc4c(cc3OC(NNC(N)=O)C2C)OCO4)cc1 (stereo not given) = > 100 µM

TGI measured on CC(/C=N/N(C)C1=NCCCCN1)=N/N(C)C1=NCCCCN1 = > 100 µM

TGI measured on NCCCC(=O)Nc1ccncc1 = > 100 µM

TGI measured on O=C(O)c1c2c(c(C(=O)O)c3ccccc13)-c1ccccc1-2 = > 100 µM

TGI measured on O=C(Nc1ccc(-n2cc(-c3ccncc3)c(-c3ccc(Cl)c(O)c3)n2)cc1)Nc1cc(C(F)(F)F)cc(C(F)(F)F)c1 = 3.15 µM

TGI measured on COc1ccc(-c2cc(C3CC3)nc(SCC(=O)O)c2C#N)cc1 = > 100 µM

TGI measured on CCCCCCCCCCC(C)CCCCCCC(=O)OCC(COP(=O)([O-])OCC[N+](C)(C)C)OC(=O)CCCCCCC(C)CCCCCCCCCC (stereo not given) = > 100 µM

TGI measured on CN1[C@@H]2CCCC[C@H]2N(C)P1(=O)C(O)/C=C/c1ccccc1 (stereo not given in full) = > 100 µM

TGI measured on COc1ccccc1C1=C2C(=O)N(C)C(c3ccccc3OC)=C2C(=O)N1C = > 100 µM

Now for another entry.
TGI measured on O=C(Nc1ccc(Cl)cc1)c1cccc([N+](=O)[O-])c1O = > 62.4 µM
